Kindly supply the reported glycan array binding signal (z-score) values for the records listed here.
molecular target: Gal(b1-3)GalNAc; assay: glycan array binding signal (z-score within array); higher = stronger binding; settings: glycan notation: IUPAC condensed, linker removed
Only a selection was taken, and the strongest signals are over-represented in it overall.
Number only, please.

INPUT: Tell me its glycan array binding signal (z-score) given Mincle (Bos taurus) (protein) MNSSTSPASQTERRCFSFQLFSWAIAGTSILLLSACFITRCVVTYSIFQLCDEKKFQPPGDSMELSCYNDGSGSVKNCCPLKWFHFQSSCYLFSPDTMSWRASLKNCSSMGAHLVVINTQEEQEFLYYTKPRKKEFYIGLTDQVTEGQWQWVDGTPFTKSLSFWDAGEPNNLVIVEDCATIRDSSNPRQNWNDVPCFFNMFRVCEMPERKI as the entry.
OUTPUT: -0.37

INPUT: Tell me its glycan array binding signal (z-score) given CTLX (Homo sapiens), Q6UXS0 (protein) SLCPLFWMEFKGHCYRFFPLNKTWAEADLYCSEFSVGRKSAKLASIHSWEENVFVYDLVNSCVPGIPADVWTGLHDHRQEGQFEWTDGSSYDYSYWDGSQPDDGVHADPEEEDCVQIWYRPTSALRSWNDNTCSRKFPFVCKIPSLTIH as the entry.
OUTPUT: 0.235

INPUT: Tell me its glycan array binding signal (z-score) given NKp30 (Homo sapiens), O14931 (protein) LWVSQPPEIRTLEGSSAFLPCSFNASQGRLAIGSVTWFRDEVVPGKEVRNGTPEFRGRLAPLASSRFLHDHQAELHIRDVRGHDASIYVCRVEVLGLGVGTGNGTRLVVEKEHPQLG as the entry.
OUTPUT: -0.24

Hello, the source for this data is the supplement of paper PMC8728848, in case you need it.
